test: Food effect cross-over study, 200 mg (25 mg tablets), healthy volunteers: plasma pharmacokinetics; assay type: in vivo, human; conditions: human, plasma, oral, 48 hours postdose, Fasted, read-out: Plasma concentration, Mean
ENDPOINT: concentration at 48 h (ng/mL)
One number for each entry, in ng/mL.

For Cn1cc(S(=O)(=O)[C@@](C)(F)C2CCN(C(=O)Nc3ccon3)CC2)c(C(F)F)n1 [Compound I] the compound record lists concentration at 48 h as 331

###

assay: Single ascending oral dose study in healthy volunteers: plasma pharmacokinetics; format: in vivo, human; settings: human, plasma, oral, 350 mg + 525 mg; read-out: AUC0-48, Mean
ENDPOINT: AUC(0-t) (ng·h/mL)
One number for each entry, in ng·h/mL.

Entry `Cn1cc(S(=O)(=O)[C@@](C)(F)C2CCN(C(=O)Nc3ccon3)CC2)c(C(F)F)n1` — recorded AUC(0-t) = 62400

###

assay: Single ascending oral dose study in healthy volunteers: plasma pharmacokinetics; assay type: in vivo, human; conditions: human, plasma, oral, 100 mg, 6 Hours Postdose; 100 mg; read-out: Plasma concentration, Geometric Mean
ENDPOINT: concentration at 6 h (ng/mL)
One number for each entry, in ng/mL.

Briefly, concentration at 6 h measured for `Cn1cc(S(=O)(=O)[C@@](C)(F)C2CCN(C(=O)Nc3ccon3)CC2)c(C(F)F)n1` : 934
